- TESTED TARGET: OccJ WT (Agrobacterium tumefaciens, UniProt P0A4F8)
- Construct: The mature PBP OccJ (256 aa without the signal peptide) expression plasmid was obtained by cloning the occJ gene lacking the first twenty residues; hexahistidine (C); made in house; host or cells: E. coli BL21
- EXPERIMENT: OccJ WT ligand binding, isothermal titration microcalorimetry
- CONDITIONS: ITC, 20 °C

{"columns": ["MOLECULE", "TESTED TARGET", "Entropic contribution (-TΔS) [cal/mol]"],
 "data": [
  ["N=C(N)NCCC[C@H](N)C(=O)O", "OccJ WT (Agrobacterium tumefaciens, UniProt P0A4F8)", -1755],
  ["NC(N)=NCCC[C@H](NCC(=O)O)C(=O)O", "OccJ WT (Agrobacterium tumefaciens, UniProt P0A4F8)", -4367],
  ["CC(N[C@@H](Cc1cnc[nH]1)C(=O)O)C(=O)O (stereo partly shown)", "OccJ WT (Agrobacterium tumefaciens, UniProt P0A4F8)", -3810],
  ["C[C@@H](N[C@@H](CCCN)C(=O)O)C(=O)O", "OccJ WT (Agrobacterium tumefaciens, UniProt P0A4F8)", -410],
  ["NCCC[C@H](N)C(=O)O", "OccJ WT (Agrobacterium tumefaciens, UniProt P0A4F8)", -4778],
  ["N=C(N)NCCCC[C@H](NCC(=O)O)C(=O)O", "OccJ WT (Agrobacterium tumefaciens, UniProt P0A4F8)", -2207],
  ["NCCCC[C@H](N)C(=O)O", "OccJ WT (Agrobacterium tumefaciens, UniProt P0A4F8)", -645],
  ["NCCC[C@H](NCC(=O)O)C(=O)O", "OccJ WT (Agrobacterium tumefaciens, UniProt P0A4F8)", -1934],
  ["C[C@@H](N[C@@H](CCCN=C(N)N)C(=O)O)C(=O)O", "OccJ WT (Agrobacterium tumefaciens, UniProt P0A4F8)", -5980],
  ["C[C@@H](N[C@@H](CCCCN)C(=O)O)C(=O)O", "OccJ WT (Agrobacterium tumefaciens, UniProt P0A4F8)", -4455]
]}

---

- TESTED TARGET: NocT WT (Agrobacterium fabrum, UniProt P35120)
- Construct: Cloning of mature OccJ, NocT-G97S, OccJ-S91G, OccJ-N202D, LAO and LAO-Q122A; made in house
- Sequence (P35120 26-283): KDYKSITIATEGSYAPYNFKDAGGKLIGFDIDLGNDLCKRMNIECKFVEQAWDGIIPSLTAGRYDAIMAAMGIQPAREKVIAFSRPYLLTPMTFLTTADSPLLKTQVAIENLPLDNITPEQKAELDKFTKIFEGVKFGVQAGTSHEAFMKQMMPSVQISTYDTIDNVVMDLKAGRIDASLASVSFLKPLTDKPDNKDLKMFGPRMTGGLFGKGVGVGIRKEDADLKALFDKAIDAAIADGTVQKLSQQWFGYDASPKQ
- Assay type: binding, Agrobacterium tumefaciens
- CONDITIONS: fluorescence titration; 20 °C; pH 8.0; octopine family members and analogues; read-out: Kd (F)
pKd: −log10 of the molar value.
ENDPOINT: pKd

{"columns": ["MOLECULE", "READING"],
 "data": [
  ["C[C@@H](N[C@@H](CCCN)C(=O)O)C(=O)O", 5.74],
  ["N=C(N)NCCCC[C@H](NCC(=O)O)C(=O)O", 4.67],
  ["C[C@@H](N[C@@H](CCCCN)C(=O)O)C(=O)O", 4.95],
  ["CC(N[C@@H](Cc1cnc[nH]1)C(=O)O)C(=O)O (stereo partly drawn)", 4.07],
  ["NCCC[C@H](NCC(=O)O)C(=O)O", 4.71],
  ["NC(N)=NCCC[C@H](NCC(=O)O)C(=O)O", 4.48]
]}
